Test system: ATP;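 note: ATP exposure 15 min at 22 °C before imaging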
Assay: switch fluorescence ratio, 500 uM ATP over buffer (Cy3 cluster intensity, sum of 5 cycles each) (fold (ratio)); higher = stronger signal-on switching upon ATP binding; sequences stand for … in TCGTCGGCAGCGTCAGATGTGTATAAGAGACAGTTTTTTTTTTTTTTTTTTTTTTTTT…TC
Settings: aptamer strand: ATP DNA aptamer (quencher-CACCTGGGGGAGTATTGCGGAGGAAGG + anchor), 100 nM annealed; ATP concentration: 500 uM
Provide the reported switch fluorescence ratio of each item.
Numbers only.

biopolymer_sequence | switch fluorescence ratio
AGACACGTTA | 1.28
AACTCGTGGG | 0.975
ATGTGGATTC | 1.02
TTTCATACGT | 1.02
GCCTACATTA | 0.997

Could you report switch fluorescence ratio for every entry in the following list?
1. TATGGCCTGG
2. TATGATAGGT
3. AACTAGAGAC
4. CACCCATTGC
5. TTTGAAAATT
6. TTTTTGAAGG

(A)
1: 1.04; 2: 0.991; 3: 0.975; 4: 1.58; 5: 0.99; 6: 0.992

Take each entry in turn and give its switch fluorescence ratio.
1. AGATAGGGAT
2. GAAGATTGGG
3. GTGATGCTGC
4. GGTTTTCTGT
5. TTTACGAGTG

(A)
1.04
0.998
1.07
0.997
1.03

List reported switch fluorescence ratio for each of these sequences:
1. TTAAAAAGGT
2. TTGATATGAG
3. CAAGACAACT
4. GGCTTTTTTC
5. TTTGCGTTGT

(A)
[1, 0.989, 1.03, 0.993, 1.02]

Parameter requested: switch fluorescence ratio. Apply to each item below.
1. GGGTCAGGCT
2. ATGTGATATG
3. GGTTCTCAGG

(A)
1: 0.981; 2: 0.994; 3: 1.02
